compound: Cc1nnc2n1-c1sc(C(C)OC(=O)C(C)(C)C)cc1C(c1ccccc1Cl)=NC2 (stereo unspecified)
melting point: 148 to 151 °C
--
compound: Cc1nccc(N2CCN(C(=O)C3CCN(S(=O)(=O)c4ccc(Br)cc4)CC3)CC2)n1
melting point: 239 to 240 °C
--
compound: CCOCc1nc2c(N)nc3cccnc3c2n1CC1(O)CCOCC1
melting point: 166 to 167 °C
--
compound: Cc1ccc(NC(=S)NC(NC(=O)c2ccc(C)cc2)C(F)(F)F)cc1 (stereo unspecified)
melting point: 192 to 193 °C
--
compound: CCCn1c(COCC)nc2c(N)nc3cc(O)ccc3c21
melting point: > 250 °C
--
compound: CCOC(=O)CCN1C(=O)C(NC(=O)Nc2ccc(Cl)cc2)N=C(c2ccccc2)c2ccccc21 (stereo unspecified)
melting point: 251 to 253 °C
--
compound: O=Cc1cccc(-c2nnc(-c3ccc(C(F)(F)F)cc3)o2)c1
melting point: 129 to 130 °C
--
compound: S=c1[nH]c2cccc(OCCN3CCc4ccccc4C3)c2[nH]1
melting point: 249 to 250 °C
--
compound: COc1cc2nc(-c3cc(C)c(O)c(C)c3)[nH]c(=O)c2cc1OC
melting point: > 300 °C
--
compound: COc1ccc(-c2nc(C(=O)Nc3c(C)cccc3C)c[nH]2)cc1OC1CCCC1
melting point: 118 to 122 °C
--
compound: CC(=O)CC1=C(C#N)C(c2cccc(C#N)c2Br)c2c[nH]nc2N1 (stereo unspecified)
melting point: 230 °C
--
compound: CC(=O)COc1cccnc1C(N)=O
melting point: 135 to 140 °C
--
compound: CCOCC(=O)Nc1cccc(NC)c1C#N
melting point: 133 to 134 °C
--
compound: CS(=O)(=O)CCS(=O)(=O)C1CCCCC1
melting point: 89 to 91 °C
--
compound: COc1ccc(C2CNC(=O)O2)cc1OC1CCCC1 (stereo unspecified)
melting point: 111 to 112 °C
--
compound: CCO[C@H]1Cc2ccccc2[C@H]1Nc1nc(CC)c(-c2ccc(OC)cc2OC)nc1CC
melting point: 120 to 121 °C
--
compound: O=C(Nc1cccnn1)N1CCN(c2cc(-c3ccc(F)cc3F)ncn2)CC1
melting point: 249 to 250 °C
--
compound: CC(=O)c1ccc(NC(=O)C(F)(F)F)nc1
melting point: 147 to 149 °C
--
compound: O=Cc1ccc(OCCN2C(=O)COc3ccccc32)cc1
melting point: 75 to 78 °C
--
compound: COc1ccc(-c2nnc(OC)nc2-c2ccc(OC)cc2)cc1
melting point: 135 to 137 °C
--
compound: CC#Cc1ccc(NC(=O)C#Cc2ccc(CCN3CCCC3)cc2)cc1
melting point: 198 to 199 °C

----------
The reader will find reported melting point values listed item by item below.
quantityKind: melting point

compound: O=c1cc(-c2ccncc2)nc2n1CCC(c1ccncc1)N2 (centres undefined)
quantityKind: melting point
observed: 268 to 270 °C

compound: O=C(CCCN1CCOCC1)c1ccc2oc3ccc(C(=O)CCCN4CCOCC4)cc3c2c1
quantityKind: melting point
observed: 98 to 99 °C

compound: Brc1ccc(-c2c(-c3ccccc3)c(-c3ccccc3)c(-c3ccccc3)c(-c3ccccc3)c2-c2ccc(Br)cc2)cc1
quantityKind: melting point
observed: 245 °C

compound: COc1ccccc1-n1c(Cn2cnc3c(N)ncnc32)nc2cccc(Cl)c2c1=O
quantityKind: melting point
observed: 257 °C

compound: Cc1cc(C(=O)c2cccc(Cc3ccccc3)c2)c(O)c2ncccc12
quantityKind: melting point
observed: 123 to 124 °C

compound: CNC(=O)Oc1cc(C)c(NC(=O)C(F)(F)Cl)cc1C
quantityKind: melting point
observed: 187 to 188 °C

compound: OCc1ccccc1SCCN1CCN(c2ccccc2)CC1
quantityKind: melting point
observed: 72 to 74 °C

compound: O=c1[nH]c(=Cc2cccs2)c(=O)[nH]c1=Cc1ccc2ccccc2n1
quantityKind: melting point
observed: 288 to 289 °C

compound: COc1ccc(-c2c(C(=O)O)c(=O)n(Cc3ccccc3OC)c3c2oc2cc(N)ccc23)cc1
quantityKind: melting point
observed: 245 °C

----------
The reader will find reported melting point values listed item by item below.

molecularString: Cc1cc(-c2cnn3c(C(F)F)cc(-c4ccc(C(F)(F)F)c(C)c4)nc23)ccn1
melting point [°C]: 221
--
molecularString: O=c1[nH]c(=O)c2c3c(cc([N+](=O)[O-])c2[nH]1)OCO3
melting point [°C]: 285
--
molecularString: O[C@H](CCl)CN=Cc1ccccc1
melting point [°C]: 46

----------
The reader will find reported melting point values listed item by item below.
quantityKind: melting point

compound: CC(=O)OCC1Cn2cc(C(=O)NCc3ccc(Cl)cc3)c(=O)c3cc(CN4CCOCC4)cc(c32)O1 (centres undefined)
quantityKind: melting point
observed: 215 to 218 °C
//
compound: CC(=O)c1ccc(-c2cc(-c3nc4ccccc4c(=O)n3-c3ccc(Cl)cc3)sc2N2CCOCC2)cc1
quantityKind: melting point
observed: 222 to 226 °C
//
compound: O=C(NC(Cc1ccccc1)c1ccccn1)c1ccccc1 (centres undefined)
quantityKind: melting point
observed: 153 to 154 °C
//
compound: CCN1CCCC(CC)(c2ccc(Nc3ncc4ccc(-c5ccccc5N(C)S(C)(=O)=O)n4n3)cc2)C1 (centres undefined)
quantityKind: melting point
observed: 93 to 101 °C

----------
molecule: Oc1cc2ccc(CCCCCl)cc2cc1O
melting point: 54 to 59 °C
//
molecule: COc1ccc(C2COc3c(ccc(O)c3C)C2)cc1 (stereo not given)
melting point: 140 to 141 °C
//
molecule: CCOC(=O)c1c(N(CC)CC)c2ccc(C)nc2n(CC)c1=O
melting point: 79 to 82 °C
//
molecule: CN(C)C(=O)c1ccc(N2CCN(Cc3cnc4c(c3)NC(=O)[C@@H]3CCCN43)CC2)cc1
melting point: 99.2 °C
//
molecule: CC(C)C(NC(=O)NCc1ccccc1)C(=O)NC(Cc1ccccc1)C(O)C(Cc1ccccc1)NC(=O)C(NC(=O)NCc1ccccc1)C(C)C (stereo not given)
melting point: 238 °C
//
molecule: CC1NC(=O)NN=C1c1ccc2c(c1)CCC(=O)N2C (stereo not given)
melting point: 240 to 242 °C
//
molecule: CCCCCCCCCCCCCCCc1ccc(-c2nc(-c3ccccc3Cl)nn2C)cc1
melting point: 62 to 65 °C
//
molecule: COC(=O)/C=C/c1cncc(-c2ccc(C)cc2)c1
melting point: 141 to 144 °C
//
molecule: Cc1c(Cc2cccc(C(F)(F)F)c2)oc2c(-c3cccc(C(=O)NCC(N)=O)c3)cccc12
melting point: 194 to 195 °C
//
molecule: CCn1c(=O)c2[nH]c(/C=C/c3cccc(OC)c3)nc2n(CC)c1=O
melting point: 271 to 272 °C
//
molecule: Fc1ccc(Oc2ncccc2COCc2ccccc2)cc1
melting point: 49 to 50 °C
//
molecule: Cc1ncc2c(c1C(=O)O)COc1ccccc1C2=O
melting point: 216 to 218 °C
//
molecule: CCOc1ccc(S(=O)(=O)c2ccc(C)nc2Nc2c(C)cc(C)cc2C)cc1
melting point: 157 to 159 °C
//
molecule: CCOC(=O)C(=O)Nc1c([N+](=O)[O-])sc2ccc(Br)cc12
melting point: 157 to 160 °C
//
molecule: CCOc1ccc2c(C)c(CCCl)c(=O)oc2c1OCC
melting point: 89 to 90 °C
//
molecule: Cc1cccc(C)c1NC(=O)C(Cl)Br (stereo not given)
melting point: 148 to 149 °C
//
molecule: COc1ccc(-c2nc(N3CCOCC3)c3sc(NS(=O)(=O)c4cccc(/C=C/C(=O)NO)c4)cc3n2)cn1
melting point: > 300 °C
//
molecule: CCc1c(N)c(C(N)=O)nn1C1CN(C(C)C)C1
melting point: 195 to 200 °C
//
molecule: CCc1ccc(Oc2ccc([C@@H]3CCCN4CCS(=O)(=O)N=C34)cc2)cc1
melting point: 152 to 153 °C
//
molecule: CN(Cc1ccccc1)C(=O)c1cnc2c3c(c(F)cc2c1)C(=O)C(C(=O)O)C=N3 (stereo not given)
melting point: 168 to 171 °C

----------
The reader will find reported melting point values listed item by item below.
quantityKind: melting point

compound: CN(C)c1nccc2c1nnn2Cc1ccccc1F
observed: 248 to 252 °C
//
compound: COc1ccc(C2=C(NC(=O)Nc3c(C)cccc3C(C)C)CN(C)c3ccc(Cl)cc32)cc1OC
observed: 200 to 201 °C
//
compound: CCOC(=O)c1cnc2c(cnn2CC)c1OCC
observed: 112 to 115 °C
//
compound: CC(C)c1nn(-c2ccc(C(F)(F)F)cn2)cc1CCCOc1cc(CCC(=O)O)n(C2CCCCC2)n1
observed: 166 to 167 °C
//
compound: CN1CCN(c2ccc(-c3cnn4c(N)c(-c5ccccc5Cl)cnc34)cc2)CC1
observed: 197 to 200 °C
//
compound: CS(=O)(=O)Nc1ccc(CCN2CCN(c3ccc(NS(C)(=O)=O)c(F)c3)CC2)cc1
observed: 232 to 234 °C
//
compound: CC(=NNC(=O)c1ccc2n1Cc1ccccc1N(C(=O)c1ccc(C3CCCCC3)cc1)C2)N(C)C
observed: 164 to 175 °C
//
compound: Cn1cc(-c2cc3cccnc3[nH]2)c2cc(C(=O)O)ccc21
observed: > 300 °C
//
compound: O=C1NC2(CCCCC2)Sc2ccccc21
observed: 193 to 195 °C
//
compound: Cc1nc(Cl)c(-c2ccc(F)cc2)n1-c1ccc(Cl)cc1
observed: 124 to 126 °C
//
compound: Cc1ccc2c3c(c(Cl)nc2c1)C(=O)c1ccccc1-3
observed: 208 to 211 °C
//
compound: COC(=O)c1ccc(C#N)cc1Cl
observed: 90 to 92 °C
//
compound: CC(=O)C(C)Oc1cc(-n2c(=O)cc(C(F)(F)F)[nH]c2=O)c(F)cc1Br (stereo unspecified)
observed: 183 °C
//
compound: CCC1(CC(=O)O)OCC(=O)c2c1[nH]c1cccc(Cl)c21 (stereo unspecified)
observed: 240 to 243 °C
//
compound: CCCCc1c(/C=C/C(=O)Oc2ccc([N+](=O)[O-])cc2)ccc2ccc(OC)cc12
observed: 114 to 115 °C
//
compound: Cc1cc(C2C=CCC2)c(S(C)(=O)=O)cc1C(=O)N=C(N)N (stereo unspecified)
observed: 212 to 214 °C
//
compound: CC(=O)NC(C)C(C)n1ncn(-c2ccc(N3CCN(c4ccc(O)cc4)CC3)cc2)c1=O (stereo unspecified)
observed: 264 °C
//
compound: CC(N)CCc1ccc(C(N)=O)s1 (racemic)
observed: 65 to 75 °C
//
compound: C=C(C1=C(CCC(=O)OC)C(=O)CC1OC(C)=O)c1ccccc1 (stereo unspecified)
observed: 78 to 79 °C
//
compound: CC1CCC(c2cccc(NC(=O)N3CCC4(CC3)OCCO4)c2)(N2CCN(c3ccccc3)CC2)CC1 (stereo unspecified)
observed: 245 to 247 °C
//
compound: CCCc1c(C(=O)NCc2ccc(-c3ccc(OCC(=O)O)cc3)cc2)cnn1-c1ccccc1
observed: 190 to 192 °C
//
compound: O=C(c1ccccc1)n1c2cc(O)c(O)cc2c2ccc(O)c(O)c21
observed: 242 to 243 °C
//
compound: CC(=O)NCCc1ccc(C=O)cc1
observed: 81 to 83 °C
//
compound: FC(F)(F)c1ccc2nc(N3CCN(c4ncccc4Cl)CC3)[nH]c2c1
observed: 208 to 210 °C
//
compound: Cn1cc(-c2cc3cccnc3[nH]2)c2cc(OCCCO)ccc21
observed: 192 to 193 °C
//
compound: CC(C)(C)COc1ccc(N)cc1C#N
observed: 55 to 56 °C
//
compound: Oc1nc(Cc2ccc(F)cc2F)ncc1F
observed: 155 to 156 °C
//
compound: CN1CCN(c2cccc3ccc(NCc4cccc5ccccc45)cc23)CC1
observed: 140 to 141 °C
//
compound: CCCCCCCCS(=O)(=O)Nc1cc(C(F)(F)F)ccc1Oc1ccccc1C(=O)O
observed: 167 to 168 °C
//
compound: O=c1oc(-c2ccc(Sc3ccccc3)cc2)cc(O)c1SCCc1ccccc1
observed: 120 to 121 °C
//
compound: COc1ccc(C2CCN(c3c(C)c(C)c4c(c3C)C(O)(c3ccc(C)cc3)C(C)(C)O4)CC2)cc1OC (stereo unspecified)
observed: 133 to 135 °C
//
compound: CC(C)n1nc(-c2sc(NC(=O)c3ccc(C(F)(F)F)cc3)nc2-c2ccccc2)ccc1=O
observed: 162 to 167 °C
//
compound: Cc1nc(-c2ccc(OCC(C)(C)C)c([N+](=O)[O-])c2)sc1C(=O)O
observed: 242 to 245 °C
//
compound: Nc1nc2cccnc2c2c1ncn2Cc1cc(-c2ccc(F)cc2)no1
observed: 265 to 266 °C
//
compound: COC(=O)c1nsnc1Br
observed: 57 to 58 °C
//
compound: CCOC(=O)C1=C(N)NC(N)=C(C(=O)OCC)C1c1cc([N+](=O)[O-])ccc1Cl
observed: 130 °C
//
compound: CCOC(=O)C1(N)C=CNN1c1cc(Cl)cc(Cl)c1 (stereo unspecified)
observed: 157 to 158 °C
//
compound: COC(=O)C(C)(N)Cc1c[nH]c2ccc(OCC3CC3)cc12 (racemic)
observed: 172 °C
//
compound: CCN(CC)C(N)=C(C#N)C(N)=S
observed: 151 to 152 °C
//
compound: CC1(C)CC(=O)C(C)(C)c2cc(C=O)ccc21
observed: 82 to 84 °C
//
compound: Cc1cn2c(n1)Cc1ccccc1NC2=O
observed: 234 to 236 °C
